Cited source for all entries: the supplement of paper PMC9170038

- Tested on: K4 kissing-loop RNA reporter
- protocol_text: apparent KD of K4 kissing-loop reporter; higher = weaker reporter binding
- experimental_parameters: Eterna round: R107; input ligand: arginine 13.2 mM
Give apparent KD of K4 kissing-loop reporter for every item shown.
One number for each entry, in nM.

Sample records with apparent KD of K4 kissing-loop reporter:
GCCUAGCAGGGAAGGAGCGCCAGGAGAAGAAAUGGAGAGAGUUGAGUGAUGUUCAAAUGGUGGCAGGUAGGUCGCCCUGCUAGGC [KL-SSArg B12] | 298
UUUUUGGUUUAGAGUGAUGUUCCUUGUUUUCGAGGACCGGUACGGCCGCCACUCGAAAAGAAAAGAAAAGAAAAGAGUGAUGUUU [BDazzled - #1 SS Tryptophan A] | 252
UGUCAUUGGUCGGCCGCCACUAAAUAAAAGAGUGAUGUUCUUAAGACGGAUCGAAAGAUCUGUCAUAGGACCGGGACCGAUGACU [TrypBS 21 #SwitchBubble #StaticStem] | 891
UAAGGGUUAUGUCCUCGGUGCGAAGAGCUCCGAGGACCGGUACGGCCGCCACUCGGAAGUUCUGAGUGAGGGAGUGAUGUUCCCU [Skye_Ex_TA] | 291
GUCAUGCGUUCAGGAUAUGGACCAAUUUAUAUUGCUUAUGCUGUGCCCUGUAUGGCAGUGAUGUUGCCAGAAGGGAGGGCAUGCA [Erbionvean] | 88
CCUAUCUCAUACGAUACCAGUCAAUGAUCUUUGAUCAAUGCCAUCACCGAGUGAUGUUCGGACCCUUGGCAGCGUAUGAGAUGGG [whbob_Ex_Theo_B_sa104] | 203
UAAUAUCAACUUGUAGGAGUGAUGUUCCGCCGAGGACCGGUACGGCCGCCACUCGACAAAAUCUCAGUGUGGUACCUAGGAAUUU [theeternabot_exclusion_KL_Trp_A_24] | 313
GGUAGCAUGGCGGCCGCCACUUUUUUAGAUACCUACACAGAAAGCAGUGAUGUUGCUUGGUGGUAAAGGACCGGGCCAUGCUACC | 131

Kindly give each listed record's apparent KD of K4 kissing-loop reporter.
1. GGAUCCUAGGCGGCCGCCACUCCAAUUGGCCGAAAGGCCUGAUACCGAGUGAUGUUCGGUUGGAGGAGGACCGGGCCUAGGAUCC [#2 Exclusion - Tryptophan B Attempt #2 (HarryS)]
2. AUUUAAUUAACUGAUACCAGACUUUUUGUUUUGUAUAUUACUAGUGAUGUUAGUGUUUCUGUCCCUUGGCAGCAGUAUCUACUUA [JR_ExcTheophyB_Sub016]
3. GGAUAGGAUAGAGGAUAUGGAAAACACAGAAAUGACUUGUUGUGUUUAUCCAUAGGGAGUGAUGUUCCAGAAGGCUGUCCUAUCG [MatMod 21 - Jieux - Exclusion - FMN B]

[132, 252, 184]

Lab book: apparent KD of K4 kissing-loop reporter of AAGGUCACUACUACAGUGAUGUUGUAGGAGCAGGAUAUGCAGAAAUGCAGAAGGGCUCGCUCCAAGUGACCGAAUGAAACAUUCA [Omei KL FMN A SS A v2] noted as 430

---

- Test system: K4 kissing-loop RNA reporter;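 further: bound reporter read as fluorescence of individual clusters on recovered sequencing chips by microscopy, with normalized cluster intensities fitted with a binding model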
- protocol_text: apparent KD of K4 kissing-loop reporter; higher = weaker reporter binding
- experimental_parameters: Eterna round: R107; input ligand: theophylline 20 uM
Could you please report measured apparent KD of K4 kissing-loop reporter for the items listed next?
One number for each entry, in nM.

CCGUGGCCGACGGCCGCCACUCUUACCAUCCAGCGGAGUGAUGUUCCGCCCGAGUGAUGUUCGGAGAGGACCGGGUCUGUUGUAA [Exclusion Tryptophan B GF30] | 89.1

Dear colleague, could you send me apparent KD of K4 kissing-loop reporter for each of the items below? Thanks.
1. UGGAGUUGACGAAAAGUCAACUCCAGAGAAGGAGCGGACGAAAGUCCAGGUAGGUCGCUCACUACCAGUGAUGUUGGUACUUGAA
2. GGUGGCGUUGUUGACAGCUCACCACGAGCCAAGGAUAUAGUUUCUUCUAGAAGGUGGAAUGACAAGUGAUGUUUGUACGACUGCU [theeternabot_exclusion_KL_FMN_A_28]
3. UUUAUAAAGUCGGCCGCCACUGGAUUUAUAUUUGUUUAAUCUGGAUCAAAGUGAUGUUUUGAGUCCAGGACCGGGACAUUUGUUA [JR_ExcTryptoB_Sub002]
4. GUUACGCAUGGAAGGAGCGCUCUCCGGCUUAUUAACACAGUGAUGUUGUGAUUUUGCCGAAAGCAGGUAGGUCGCCAUGUGUAAC [Ex Arginine B K4 11]
5. UUAGUGACAAGUCAGAUUCUGACAAUUGAUACCAGAUAGAAUUCUAUCCCUUGGCAGCAGUGAUGUUGUUGCAAAUAGUCACAUU [AK3 Exc Theophylline A]
6. GAGCGGUAGAGGCUACCGCUAUUCUGAGAAGGAGCGCAGAUGACUGCAGGUAGGUCGCUUAGAGCUUGCAGUGAUGUUGCAAGUU [Inzarier]
7. GUGCGCGCGGCGGCCGCCACUCGCAUGAGAGUGAUGUUCUCACCGUGACCGCAAGGUCGCGGUGUGAGGACCGGGCCGGGCUGCG [#2 Same State - Tryptophan B Attempt #25 (HarryS)]

[449, 294, 135, 447, 242, 181, 464]

Working through the 2 sequences below one at a time, give apparent KD of K4 kissing-loop reporter for each.
1. UUAUCACCCUAAGGAUAUAGCUAAGUGAUGUUUAGCUCGUCGCAGGGUAAACACUAGGCCCAAAGGCUAGAAGGUAGCUGGUACC [theeternabot_exclusion_KL_FMN_B_35]
2. AAAAUUGCGGUCGAAAGAACUUCUUGCAUACGAGGACCGGUACGGCCGCCACUCGAGUCAAGUGAUGUUUGAUUUUCUAUUAUUA [JR_ExcTryptoA_Sub013]

[81.3, 205]

Return reported apparent KD of K4 kissing-loop reporter values for all items listed beneath this line.
1. AGUGAUGUGGGAAGGAGCGGUAUAUGAAUUCAGUGAUGUUGAAGUGAUGCUGUAAUGAUGUGCCAGGUAGGUCGCCUAGAUGUUA [KL-XARG B26]
2. UCCUACGAGGUAACGUGGAUAUCUCGUUGCAAGGAUAUCUGGAAACAGAGAAGGUGCUACAUUAUCGGCAGUGAUGUUGCUGACC

1. 171
2. 759

---

- Tested on: MS2 coat protein
- protocol_text: apparent KD of MS2 coat protein; higher = weaker reporter binding
- experimental_parameters: Eterna round: R107; input ligand: theophylline 20 uM
Task for the reader: assign each of the following sequences its reported apparent KD of MS2 coat protein.
One number for each entry, in nM.

Consider the worked cases shown below.
UUGGGUAUGCGAAGGAGCGGGAAAUAUAUAUAUAUAAUCCUAACAUGAGGAUCACCCAUGUCCCAGGUAGGUCGCGCAUAUUUGG [12.J] | 88.9
AGCGACAUGCGUGAUACCAGCUACAUGAGGAUCACCCAUGUACGUCAGAAAUGACUGUGUAGCCCUUGGCAGCAUAGUGCAUGUC [Exclusion - Theophylline B (Freestyle 20)] | 54.2
ACAUUUAACUGAAGGAGCGUGAUAAACAUGAGGAUCACCCAUGUACCACAGAUUUUCAGAUCACAGGUAGGUCGCAGACUAAUGA [JR_ExcArginiB_Sub014] | 14.1

Each sequence below has a recorded value; state its apparent KD of MS2 coat protein.
1. GGUCUCUGGAGCGAUACCAGCUUGAGUGUACUGGCCAGGUACAUGAGGAUCACCCAUGUAAGCCCUUGGCAGCGCUCCAGAGACC [#1 Exclusion - Theophylline B Attempt #15 (HarryS)]
2. AACAUGAGGAUCACCCAUGUCCUCGUGAUUCGAGGACCGGUACGGCCGCCACUCGGUCCUCGCGAGGAGGAGUCAAAGACUCCAA [Omei Trp A SS A v1]
3. AAUCAUGGAAACAUGACAUGAGGGUUACUCCGAGGACCGGUACGGCCGCCACUCGCGAGGAGGCGGACAUGAGGAUCACCCAUGU [#04 Tryptophan A Same State]

14
229
240

---

- Tested on: MS2 coat protein
- protocol_text: apparent KD of MS2 coat protein; designed switch direction (-1 OFF switch, 1 ON switch): -1; higher = weaker reporter binding
- experimental_parameters: input ligand: microRNA oligo, concentration not stated
reported_endpoint: apparent KD of MS2 coat protein (nM)
Numbers only, in nM.

AAGAGGAUCGGAGGAUAUGGAGCUGAAACGGCGCUAGAAGGCCGUCCAGUGUAACAUGAGGAUCACCCAUGUAGGGACCUCUAA [EX ng 1 4.1] (Eterna round: R96, puzzle: Exclusion NG 1) | 65.5
CGAUGCUCGAAUCCACAUGAGGAUCACCCAUGUCGAGUUAGCGAGGAUAUCGGAGACACAUAGUAUGAGAAGGCGCGAACCUGA [Ex NG3 #23] (Eterna round: R96, puzzle: Exclusion NG 3) | 10.5
GGAUUCUCGCAAGGAUAUCGCUUACAUCCUAAGCGAGAAGGUGCUACCAACUUGAGGAUCACCCAAGUGACUUGGGCCUAAAUA [Mutated MS2 EX1.27] (Eterna round: R96, puzzle: Exclusion NG 1) | 34.2
UUAUUGUAUGUAGGAUAUGCGUAUUAUUGUUAUGCAGAAGGACAUGAGGAUCACCCAUGUAUAUUAUUGUUAUAUAUUAUAUAU [Title] (Eterna round: R96, puzzle: Exclusion NG 1) | 22.7
UACAUGAGGAUCACCCAUGUUUUGUCGUGUAUGGUAUUUAUCUAGGAUAUCAAUUUAGUUAUGUAUGAGAAGGAGAAUAUUAAU [JMF's solution 78] (Eterna round: R96, puzzle: Exclusion NG 3) | 33.9
GGACCAAGUCUAGGAUAUUUCAAUAGUUGUGUGAGAGAAGGAGAAUAACAUGAGGAUCACCCAUGUACCUCAAGUAGGCCGAUU [Eternabot solution 16] (Eterna round: R96, puzzle: Exclusion NG 1) | 36.2
GGUACUCAAAGAGUACCAAUACGAACAUGAGGAUCACCCAUGUAGGAUAUGCUACUCAAAGAGUAGCAGAAGGAUAUGAACCUC [Far Half Aptamer v10] (Eterna round: R96, puzzle: Exclusion NG 3) | 204
ACAAGAUCGGAAGGAUAUUGUACAUGAGGAUCACCCAUGUAAUAAAUGAGGAUCACGGAUGUAGUCAAGAAGGUCCGGAUAAGA [Ostracism 3 - Jieux - Exclusion NG 2] (Eterna round: R96, puzzle: Exclusion NG 2) | 41.2
AAAAGCGUCACAGGAUAUUCAGGCGACGCCAAAGAAGAAGGGUGAGGCACAAACAUGAGGAUCACCCAUGUGGUCCUCUCCCGA [Vebiquti] (Eterna round: R96, puzzle: Exclusion NG 1) | 11
AGCUGUGGCCGAGGAUAUCUAUUAAUCCAAACCGAAAUAUAAUCGGACAUGAGGAUCACCCAUGUAGAGAAGGCGGUCUCAGCA [Eli eng2 - 077] (Eterna round: R96, puzzle: Exclusion NG 2) | 53.5

Hello, I would appreciate it if you could give apparent KD of MS2 coat protein for each entry below.
1. AGAUGCUCGAGUCGACAUGAGGAUCACCCAUGUACAGUUAAUGAGGAUAUCUGAGACAAAUAGUAGGAGAAGGCGUGAACAUGA [Ex NG3 #11] (Eterna round: R96, puzzle: Exclusion NG 3)
2. CAUGAUUGGGAAGGAUAUUGACCUAGUUAGUGCCGAGAAGGUCCCUUUCACAUGAGGAUCACCCAUGUGAGUCUGGUGUUCGAG [Ex NG1 #97] (Eterna round: R96, puzzle: Exclusion NG 1)

1. 68.6
2. 23.7

Give one value of apparent KD of MS2 coat protein per listed sequence.
1. UUUUUAUAUGAAGGAUAUACUUAACAUGAGGAUCACCCAUGUGGUGUUGUGAGUGAGUGAGUUUAGUAGAAGGUCAAUUAUUGU [JMF's solution 16] (Eterna round: R96, puzzle: Exclusion NG 2)
2. UGAGUGCUGCGAGGAUAUACAUGAGGAUCACCCAUGUGGAUGUCUGAGGCUUUGCCUCAGACGAUGUAGAAGGCGCAGUACUCU [JL ENG2 1.20] (Eterna round: R96, puzzle: Exclusion NG 2)

155
15.2

For each entry beneath this line, provide reported apparent KD of MS2 coat protein.
1. GUAUAUGAUGUAGGAUAUACGAGACAUGAGGAUCACCCAUGUGAGGGAAGGAGAAGGAGAAGAGAGUAGAAGGAUAGAGUGUGA [Default title] (Eterna round: R96, puzzle: Exclusion NG 2)
2. UCGUCGUCGUCAGGAUAUAGUCUUAUUGUUAUGCUUUUGUUCGUACAUGAGGAUCACCCAUGUGGCUAGAAGGGACUAAAGUUU [JR_ExcNG2_Sub017] (Eterna round: R96, puzzle: Exclusion NG 2)
3. GCUAAACAUGUAGGAUAUGCGUGGCGAAGCUAUGCAGAAGGACAUGAGGAUCACCCAUGUUUUAGCGUCUGCGUACAGAUGCGU [JL ENG1 1.43] (Eterna round: R96, puzzle: Exclusion NG 1)

1. 45.7
2. 17.2
3. 28

The value of apparent KD of MS2 coat protein measured for the sequence UGAUCUAGCGGAGGAUAUACAUGAGGAUCACCCAUGUAUAGGCUAUGACCGUAGUCGUGGCACGUGUAGAAGGCCGCUAGAUCU [JL ENG2 3.77] (Eterna round: R96, puzzle: Exclusion NG 2) turned out to be 8.1
